Tested on: type PO SadP-6407(31-328)
Reported conditions: PBS, 25 °C; n=0.85
Readout type: pKd
Answers are plain numbers, as −log10 of the molar value.

Asked: Would you mind telling me what pKd value was observed for C[Si](C)(C)CCO[C@@H]1O[C@H](CO)[C@H](O[C@H]2O[C@H](CO)[C@H](O)[C@H](O)[C@H]2O)[C@H](O)[C@H]1O [Galα1–4Gal TMSEt glycoside] ?
Given back: 5.46

----------
Tested on: type PN SadP(125-329) (Streptococcus suis, UniProt G5DSS1, N271D)
Experiment summary: biochemical
Readout type: pKd
Answers are plain numbers, as −log10 of the molar value.

Asked: Would you mind telling me what pKd value was observed for C[Si](C)(C)CCO[C@@H]1O[C@H](CO)[C@H](O[C@H]2O[C@H](CO)[C@H](O)[C@H](O)[C@H]2O)[C@H](O)[C@H]1O [Galα1–4Gal TMSEt glycoside] ?
Given back: 4.64
